Assay overview: physchem
Experimental context: HPLC, Ascentis Express RP Amide column, pH 7.4, eLogD, experimental
Measured chromatographic logD, listed per entry.
Hey, just send me the number, nothing else.

Solved cases (2 shown):
Lab note: measured chromatographic logD of O=S1(=O)c2ccccc2[C@H](O)[C@H](Cc2ccccc2)N1Cc1ccccc1 [DNDI0003578379] was 3.9

Lab note: measured chromatographic logD of COc1ccc(CNC2COC2)cc1S(=O)(=O)N(Cc1ccc(F)cc1)Cc1ccc(F)cc1 [DNDI0003389115] was 4

Others:
Lab note: measured chromatographic logD of O=S(=O)(NCc1ccc(F)cc1)c1cccnc1OCc1ccccc1 [DNDI0003369120] was 4
